Experiment: Quantitative High-Throughput drug screen in 47 multiple myeloma cell lines against the NCATS MIPE library collection: UTMC2_PLB cell viability assay (AID 1919868); note: potency is the fitted concentration of half-maximal effect; nearly all actives have a fitted effect of over 55% in size
Details: CellTiter-Glo ATP luminescence, 48 h
Records with an inconclusive call do not appear. Activity calls are given as the source filed them. Calls come from the whole dose curve; as a rule, active = well fitted cell-killing curve with a large enough effect; inconclusive = small, poorly fitted or top-dose-only effect, or effect the other way; inactive = no such curve, though single readings can be large or run the other way.
Assign Potency to each entry below.

>>> observed_result("CC1(C)Cc2c(-c3ccccc3)c(-c3ccc(Cl)cc3)c(CC(=O)O)n2C1")
"16.6 µM (active)"
>>> observed_result("COc1cccc2cc(-c3nc(C4CCC(C(=O)O)CC4)n4ncnc(N)c34)[nH]c12 (configuration not stated)")
"0.235 µM (active)"
>>> observed_result("C#Cc1cccc(Nc2ncnc3cc(OCCOC)c(OCCOC)cc23)c1")
"4.18 µM (active)"

Dear colleague, could you please provide Potency for the compounds listed below?
1. CCCCCCCc1ccc(CCc2cccc(O)c2C(=O)O)cc1
2. CCc1cncnc1N1CCN(Cc2nc3ccc(C(F)(F)F)cc3[nH]2)CC1

1. 29.6 µM (active)
2. 18.7 µM (active)

Working through the 2 compounds below one at a time, give Potency for each.
1. CCOC(=O)C1=C[C@]2(CC)CCCN3CCc4c(n1c1ccccc41)[C@@H]32
2. CCOc1ccn(-c2ccc(F)cc2)c(=O)c1C(=O)Nc1ccc(Oc2ccnc(N)c2Cl)c(F)c1

1. 9.35 µM (active)
2. 13.2 µM (active)
